Hello, the source for this data is patent US20220193030A1, in case you need it.

# System: IL-12
# ASSAY REMARKS: mRNA level of IL-12 in sciatic nerve tissue of EAN model rabbits (RT-PCR)
# Type: in vivo, big-ear white rabbits
# TEST SETTINGS: 14th day after modeling, ginkgolide groups 4.5 mg/kg intragastric 2 times a day, positive control 400 mg/kg·d i.p. 5 days
# Protocol: 21 experimental groups, 8 rabbits in each group. Positive control group: rabbit immune globulin, 400 mg/kg·d, intraperitoneal injection, for 5 consecutive days The ginkgolide groups are set the same as Test example 1, i.e., include the ginkgolide A group to the ginkgolide K group (GA group to GK group), the bilobalide group (BB group) and the ginkgolide I group to the ginkgolide XI group, 18 groups in total. […]
PROPERTY: Cytokines IL-12 (mRNA level, sciatic nerve tissue)

Use these answered entries as a reference point.
[[record]]
compound = "CC1C(=O)OC2C(O)C34C5CC(C(C)(C)C)C36C(OC(=O)C6O)OC4(C(=O)O5)C12O (centres unmarked) [Ginkgolide B, ginkgolide B]"
result = "3.928 ± 0.409"

[[record]]
compound = "C[C@@H]1C(=O)O[C@H]2C[C@@]34[C@H]5C[C@@H](C(C)(C)C)[C@]36[C@@H](OC(=O)[C@@H]6O)O[C@@]4(C(=O)O5)[C@]21O [Ginkgolide A, ginkgolide A]"
result = "5.977 ± 0.141"

[[record]]
compound = "CC1=C2[C@@H](OC1=O)[C@H](O)[C@]13[C@H]4C[C@@H](C(C)(C)C)[C@]15[C@@H](OC(=O)[C@@H]5O)O[C@@]23C(=O)O4 [Ginkgolide K, ginkgolide K]"
result = "6.412 ± 0.169"

[[record]]
compound = "C[C@@H]1C(=O)O[C@@H]2[C@H]1[C@@]13OC4OC(=O)[C@H](O)C45[C@H](C(C)(C)C)[C@@H](O)C(OC1=O)[C@]53[C@H]2O (some centres unmarked) [Ginkgolide M, ginkgolide M]"
result = "6.260 ± 0.411"


Now take the following compound into account.
Hello, I am looking for reported Cytokines IL-12 (mRNA level, sciatic nerve tissue) with IL-12 for CC(C)(C)[C@]1(O)CC2OC(=O)CC23C(=O)OC2OC(=O)[C@H](O)C231 (some centres unmarked) [Bilobalide, bilobalide] . Could you help?
4.087 ± 0.275

====

# Tested on: EAN model rats
# ASSAY REMARKS: Pre-experimental dose study: clinical score of neurological symptoms of EAN model rats
# Format: in vivo, Lewis rats
# TEST SETTINGS: 15 mg/kg, score 0-10
Marks after values point to notes of the source that are not given here.
Provide the recorded Clinical score (D17) for the entries that follow.

[[record]]
molecule = "CC1C(=O)OC2C(O)C34C5CC(C(C)(C)C)C36C(OC(=O)C6O)OC4(C(=O)O5)C12O (centres unmarked) [Ginkgolide B, ginkgolide B]"
result = "5.20 ± 0.63*^Δ"

[[record]]
molecule = "C[C@@H]1C(=O)O[C@H]2C[C@@]34[C@H]5C[C@@H](C(C)(C)C)[C@]36[C@@H](OC(=O)[C@@H]6O)O[C@@]4(C(=O)O5)[C@]21O [Ginkgolide A, ginkgolide A]"
result = "6.00 ± 1.25*^Δ"

[[record]]
molecule = "CC(C)(C)[C@]1(O)CC2OC(=O)CC23C(=O)OC2OC(=O)[C@H](O)C231 (some centres unmarked) [Bilobalide, bilobalide]"
result = "4.90 ± 0.88*^Δ"

[[record]]
molecule = "C[C@@H]1C(=O)O[C@@H]2[C@H]1[C@@]13OC4OC(=O)[C@H](O)C45[C@H](C(C)(C)C)[C@@H](O)C(OC1=O)[C@]53[C@H]2O (some centres unmarked) [Ginkgolide M, ginkgolide M]"
result = "6.50 ± 0.71*^Δ"


# ---- query molecule ----
I would be grateful if you could share the reported Clinical score (D17) for CC1=C2[C@@H](OC1=O)[C@H](O)[C@]13[C@H]4C[C@@H](C(C)(C)C)[C@]15[C@@H](OC(=O)[C@@H]5O)O[C@@]23C(=O)O4 [Ginkgolide K, ginkgolide K] .
6.70 ± 0.82*^Δ
